Where these numbers come from: paper PMC11981762

target: glycine receptor α1 D130A (Homo sapiens, UniProt P23415, D142A); format: cell-based
measurementLabel: IC50 (µM)

smi	measurementLabel	reading
CN1C[C@H](C(=O)N[C@]2(C)O[C@@]3(O)[C@@H]4CCCN4C(=O)[C@H](Cc4ccccc4)N3C2=O)C=C2c3cccc4[nH]cc(c34)C[C@H]21	IC50	28.1

* * *

target: glycine receptor α1 F124A (Homo sapiens, UniProt P23415, F136A)
Sequence (P23415 29-457 F136A): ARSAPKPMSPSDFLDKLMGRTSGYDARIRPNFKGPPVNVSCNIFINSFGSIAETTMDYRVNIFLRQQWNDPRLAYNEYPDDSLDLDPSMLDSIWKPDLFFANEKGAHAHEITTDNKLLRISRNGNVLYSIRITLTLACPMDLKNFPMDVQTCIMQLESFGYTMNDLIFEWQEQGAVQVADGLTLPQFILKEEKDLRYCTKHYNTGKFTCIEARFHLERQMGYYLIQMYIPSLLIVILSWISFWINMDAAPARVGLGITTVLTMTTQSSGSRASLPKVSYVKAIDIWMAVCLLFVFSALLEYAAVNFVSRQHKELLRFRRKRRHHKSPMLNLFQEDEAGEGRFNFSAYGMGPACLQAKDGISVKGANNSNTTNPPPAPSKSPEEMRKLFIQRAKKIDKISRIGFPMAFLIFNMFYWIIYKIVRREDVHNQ

molecule	IC50 [µM]
CN1C[C@H](C(=O)N[C@]2(C)O[C@@]3(O)[C@@H]4CCCN4C(=O)[C@H](Cc4ccccc4)N3C2=O)C=C2c3cccc4[nH]cc(c34)C[C@H]21 [ergotamine]	25.7
